System: SF-268 CNS
Assay: NCI-60 one-dose screen, 48 h (100 = growth as untreated, 0 = no growth, -100 = all killed)
Conditions: 10 µM unless noted
About 83,000 compounds went through this panel and 20% of them were active in at least one assay; those are over-represented in the sample as a whole.
Could you please report measured growth for the items listed next?
Answer in %, number only, no unit symbol.

Looking up OB(O)c1cccc(-c2nc3ccc4[nH]ncc4c3c3c2CCCC3)c1 , I see its growth listed as 37.9

// O=C(c1ccc(Cl)cc1)N1CCN(c2ccnc3cc(Cl)ccc23)CC1 : growth value = 100

growth for O=C1NC(=O)c2c1c1c3ccccc3ccc1c1[nH]c3ccc(Br)cc3c21 is 14

Summary for this compound, CCCCCCNC(=O)Oc1ccc(/C(=C(/C)Cc2ccc(OC)cc2)c2ccc(OCCCN(C)C)cc2)cc1 : growth is 60.8

Measured growth, O=C1/C(=C/c2ccc(F)cc2)COc2ccc(O)cc21 : 90
